experiment: reducers of endogenous Her2 protein level, primary screen, SKBR3 breast tumor cells, AlphaScreen, ATP viability (AID 461); conditions: 18-24 h, measured here: SKBR3 viability, ATP luminescence, at 10 µM;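 note: percent of carrier control wells set as 100% viability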

{"COMPOUND": "Cc1nnc2n(-c3ccccc3)c(=O)c3c4c(sc3n12)CCCC4", "viability, %": 79.5}
{"COMPOUND": "COCCn1c(SCC(=O)Nc2sc(C)c(C)c2C#N)nnc1C(C)C", "viability, %": 98}
{"COMPOUND": "CCOc1ccc(-c2noc(-c3ccncc3)n2)cc1OCC", "viability, %": 99}
{"COMPOUND": "CCOC(=O)c1[nH]c(C)c(C(=O)N2CCN(c3ccc(F)cc3)CC2)c1C", "viability, %": 107}
{"COMPOUND": "Cc1cccc(CN2CCN(C(c3ccccc3)c3ccc(Cl)cc3)CC2)c1 (stereo unspecified)", "viability, %": 83}
{"COMPOUND": "O=C(CSc1nnc(COc2ccc(Cl)cc2)o1)N1CCN(c2ccccc2)CC1", "viability, %": 100}
{"COMPOUND": "Cc1nc2c3cnn(-c4ccccc4)c3ncn2n1", "viability, %": 104}
{"COMPOUND": "Cc1cc(NC(=O)CSc2nccn2-c2ccc(F)cc2)no1", "viability, %": 85.5}
{"COMPOUND": "CCOc1cc(S(=O)(=O)Nc2ccccn2)ccc1F", "viability, %": 114}
{"COMPOUND": "Cc1ccc(-c2nc3ncccc3o2)cc1NC(=O)c1ccco1", "viability, %": 97.5}
{"COMPOUND": "O=C(c1c(F)cccc1F)N(Cc1ccccn1)C1CCCC1", "viability, %": 78}

Reference for the values: PubChem BioAssay
